Biological target: Recombinant Human catalytic domains of MMP1 (Homo sapiens (Human), UniProt P03956)
Sequence (P03956 98-276): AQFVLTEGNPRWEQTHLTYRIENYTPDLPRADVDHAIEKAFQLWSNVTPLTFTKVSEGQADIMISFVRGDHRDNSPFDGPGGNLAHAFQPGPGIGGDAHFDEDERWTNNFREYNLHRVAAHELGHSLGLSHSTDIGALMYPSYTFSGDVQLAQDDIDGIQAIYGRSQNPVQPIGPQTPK
Assay: MMP1 isolated enzyme assay, profluorescent peptidic substrate
Format: biochemical
Conditions: 10 minutes incubation at room temperature; read-out: MMP1 enz IC50
pIC50: −log10 of the molar value.
Measurement Label: pIC50

CCN1CCN(C(=O)N2CC(CC(=O)NO)(NS(=O)(=O)c3ccc(OCc4cc(C)nc5ccccc45)cc3)C2)CC1 [Example 28b] = < 5.00
Cc1cc(COc2ccc(S(=O)(=O)NC3(C(=O)NO)CN(C(=O)CC4CCC4)C3)cc2)c2ccccc2n1 [Example 26f] = < 5.00
Cc1cc(COc2ccc(S(=O)(=O)NC3(C(=O)NO)CN(C(=O)C(C)C)C3)cc2)c2ccccc2n1 [Example 7b] = < 5.00

Please look at the items below and tell me pIC50 for each one, in order.
1. Cc1cc(COc2ccc(S(=O)(=O)NC3(CC(=O)NO)CN(C(=O)C(C)(C)N(C)C)C3)cc2)c2ccccc2n1 [Example 18]
2. Cc1cc(COc2ccc(S(=O)(=O)NC3(CC(=O)NO)CN(C(=O)CC(C)(C)C)C3)cc2)c2ccccc2n1 [Example 11]
3. Cc1cc(COc2ccc(S(=O)(=O)NC3(CC(=O)NO)CN(C(=O)N4CCN(C)CC4)C3)cc2)c2ccccc2n1 [Example 10]

Reply:
1: < 5.00; 2: < 5.00; 3: < 5.00
